Target: Kallikrein-5 (Homo sapiens, UniProt Q9Y337)
Sequence (Q9Y337 whole entry): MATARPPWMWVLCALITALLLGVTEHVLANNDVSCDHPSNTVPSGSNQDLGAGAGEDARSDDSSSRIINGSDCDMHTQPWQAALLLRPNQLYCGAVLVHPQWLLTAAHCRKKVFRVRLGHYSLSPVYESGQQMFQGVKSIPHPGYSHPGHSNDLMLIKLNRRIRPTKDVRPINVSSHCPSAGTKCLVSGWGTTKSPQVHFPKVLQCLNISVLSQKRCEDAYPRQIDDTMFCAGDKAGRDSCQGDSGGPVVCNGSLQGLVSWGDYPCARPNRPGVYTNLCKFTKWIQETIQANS
Test: Inhibition of recombinant human KLK5 using S-2288 substrate
experimental-readout: pIC50
# pIC50 = -log10(concentration in molar units)

Tell me its pIC50 given CCOc1cc2c(=O)oc(-c3ccccc3OC)nc2cc1OC as the entry.
6.70

###

Biological target: Kallikrein-1 (Homo sapiens, UniProt P06870)
Sequence (P06870 whole entry, the tested form may be a part): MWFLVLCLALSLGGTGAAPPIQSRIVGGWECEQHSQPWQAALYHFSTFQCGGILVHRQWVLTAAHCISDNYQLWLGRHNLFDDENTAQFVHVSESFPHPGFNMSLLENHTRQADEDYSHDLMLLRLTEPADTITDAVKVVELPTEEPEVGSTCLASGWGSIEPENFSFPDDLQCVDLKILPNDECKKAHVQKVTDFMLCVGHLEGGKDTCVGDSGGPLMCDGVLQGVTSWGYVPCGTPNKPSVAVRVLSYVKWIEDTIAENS
Experiment: Inhibition of recombinant human N-terminal his-tagged KLK1 (19 to 262 residues) expressed in baculovirus infected sf9 insect cells using R110 labelled GSK3162232A as substrate measured every 30 secs intervals for 5 mins by Rhodamine110 dye-based fluorescence assay
Please respond with reported pIC50 for every item in the list.
# pIC50 = -log10(concentration in molar units)

Tell me its pIC50 given N=C(N)c1ccc(NC(=O)c2cccc(Cl)c2O)cc1 as the entry.
6.20

Tell me its pIC50 given Cn1c(C(=O)Nc2ccc(C(=N)N)cc2)nc2ccccc21 as the entry.
3.70

Tell me its pIC50 given COc1cccc(C(=O)Nc2ccc(C(=N)N)cc2)c1O as the entry.
6.50

###

Test: Dissociation constant, pKa of phenol group of the compound by UV spectrophotometric analysis
Format: physicochemical
Please respond with reported pKa for every item in the list.

Tell me its pKa given N=C(N)c1ccc(NC(=O)c2cccc(Cl)c2O)cc1 as the entry.
5

Tell me its pKa given COc1cccc(C(=O)Nc2ccc(C(=N)N)cc2)c1O as the entry.
6.6

Tell me its pKa given N=C(N)c1ccc(NC(=O)c2ccccc2O)cc1 as the entry.
6.8

Tell me its pKa given Cc1cccc(C(=O)Nc2ccc(C(=N)N)cc2)c1O as the entry.
6.8

###

Target: UniProt Q9Y337
Assay: Inhibition of recombinant human FLAG-tagged KLK5 expressed in baculovirus infected sf9 insect cells using (Tos-Gly-Pro-Arg)2[R110].2TFA as substrate measured every 30 secs intervals for 5 mins by Rhodamine110 dye-based fluorescence assay
The label met is reserved for IC50 strictly under 10 µM; not met covers values equal to or above it.

Hi there! Is IC50 for N=C(N)c1ccc(NC(=O)c2cccc(O)c2O)cc1 below 10 µM, do you know?
met

Hi there! Is IC50 for N=C(N)c1ccc(NC(=O)c2ccccc2O)cc1F below 10 µM, do you know?
not met

Hi there! Is IC50 for COc1cccc(C(=O)Nc2ccc(C(=N)N)c(F)c2)c1O below 10 µM, do you know?
met

Hi there! Is IC50 for N=C(N)c1ccc(NC(=O)c2ccccc2O)c(F)c1 below 10 µM, do you know?
met

Hi there! Is IC50 for N=C(N)c1ccc(NC(=O)c2cccc(Cl)c2O)cc1 below 10 µM, do you know?
met

Hi there! Is IC50 for Cn1cccc(C(=O)Nc2ccc(C(=N)N)cc2)c1=O below 10 µM, do you know?
not met

Hi there! Is IC50 for N=C(N)c1ccc(NC(=O)c2ccccc2O)cc1 below 10 µM, do you know?
met

###

Please respond with reported IC50 for every item in the list.
Biological target: Kallikrein-5 (Homo sapiens)
Assay: Inhibition of recombinant human FLAG-tagged KLK5 expressed in baculovirus infected sf9 insect cells using (Tos-Gly-Pro-Arg)2[R110].2TFA as substrate measured every 30 secs intervals for 5 mins by Rhodamine110 dye-based fluorescence assay
Quick note: give the figure in µM, leave out the unit.

Tell me its IC50 given Cc1cccc(C(=O)Nc2ccc(C(=N)N)cc2)c1O as the entry.
7.94

Tell me its IC50 given Cn1c(C(=O)Nc2ccc(C(=N)N)cc2)nc2ccccc21 as the entry.
12.6

Tell me its IC50 given Cc1cc(C(=N)N)ccc1NC(=O)c1ccccc1O as the entry.
12.6

Tell me its IC50 given COc1cccc(C(=O)Nc2ccc(C(=N)N)cc2)c1O as the entry.
0.501

Tell me its IC50 given COc1cccc(C(=O)Nc2ccc(C(=N)N)c(Cl)c2)c1O as the entry.
10

Tell me its IC50 given CCOc1cccc(C(=O)Nc2ccc(C(=N)N)cc2)c1O as the entry.
5.01

###

Target: Kallikrein-1 (Homo sapiens)
Experiment: Inhibition of recombinant human N-terminal his-tagged KLK1 (19 to 262 residues) expressed in baculovirus infected sf9 insect cells using R110 labelled GSK3162232A as substrate measured every 30 secs intervals for 5 mins by Rhodamine110 dye-based fluorescence assay
Please respond with reported IC50 for every item in the list.
Quick note: give the figure in µM, leave out the unit.

Tell me its IC50 given N=C(N)c1ccc(NC(=O)c2cccc(O)c2O)cc1 as the entry.
3.98

Tell me its IC50 given N=C(N)c1ccc(NC(=O)C2CCCNC2=O)cc1 (configuration not stated) as the entry.
501

Tell me its IC50 given CCOc1cccc(C(=O)Nc2ccc(C(=N)N)cc2)c1O as the entry.
0.126

Tell me its IC50 given N=C(N)c1ccc(NC(=O)N2CCCNC2=O)cc1 as the entry.
631

Tell me its IC50 given N=C(N)c1ccc(NC(=O)c2ccccc2O)cc1 as the entry.
12.6

Tell me its IC50 given N=C(N)c1ccc(NC(=O)c2ccccc2O)c(F)c1 as the entry.
3.16

Tell me its IC50 given N=C(N)c1ccc(NC(=O)c2ccccc2O)cc1F as the entry.
12.6

Tell me its IC50 given Cn1cccc(C(=O)Nc2ccc(C(=N)N)cc2)c1=O as the entry.
501

Tell me its IC50 given COc1cccc(C(=O)Nc2ccc(C(=N)N)c(F)c2)c1O as the entry.
0.251

Tell me its IC50 given Cc1cccc(C(=O)Nc2ccc(C(=N)N)cc2)c1O as the entry.
3.16

Tell me its IC50 given COc1cccc(C(=O)Nc2ccc(C(=N)N)c(Cl)c2)c1O as the entry.
1.26

Tell me its IC50 given Cc1cc(C(=N)N)ccc1NC(=O)c1ccccc1O as the entry.
5.01

###

Target: UniProt Q9Y337
Assay: Inhibition of KLK5 (unknown origin) using Boc-Val-Pro-Arg-AMC substrate incubated for 15 mins by fluorescence assay
experimental-readout: IC50 (µM)
Quick note: give the figure in µM, leave out the unit.

Tell me its IC50 given O=C1Oc2ccccc2CC1C(=O)Oc1nccc2ccccc12 (stereo unspecified) as the entry.
7
